# system-tested: human α4β7 integrin (Homo sapiens, UniProt P13612+P26010)
# Construct: expressed in transfected cells; host or cells: K562 cells, stably transfected
# Sequence (P13612 34-1032): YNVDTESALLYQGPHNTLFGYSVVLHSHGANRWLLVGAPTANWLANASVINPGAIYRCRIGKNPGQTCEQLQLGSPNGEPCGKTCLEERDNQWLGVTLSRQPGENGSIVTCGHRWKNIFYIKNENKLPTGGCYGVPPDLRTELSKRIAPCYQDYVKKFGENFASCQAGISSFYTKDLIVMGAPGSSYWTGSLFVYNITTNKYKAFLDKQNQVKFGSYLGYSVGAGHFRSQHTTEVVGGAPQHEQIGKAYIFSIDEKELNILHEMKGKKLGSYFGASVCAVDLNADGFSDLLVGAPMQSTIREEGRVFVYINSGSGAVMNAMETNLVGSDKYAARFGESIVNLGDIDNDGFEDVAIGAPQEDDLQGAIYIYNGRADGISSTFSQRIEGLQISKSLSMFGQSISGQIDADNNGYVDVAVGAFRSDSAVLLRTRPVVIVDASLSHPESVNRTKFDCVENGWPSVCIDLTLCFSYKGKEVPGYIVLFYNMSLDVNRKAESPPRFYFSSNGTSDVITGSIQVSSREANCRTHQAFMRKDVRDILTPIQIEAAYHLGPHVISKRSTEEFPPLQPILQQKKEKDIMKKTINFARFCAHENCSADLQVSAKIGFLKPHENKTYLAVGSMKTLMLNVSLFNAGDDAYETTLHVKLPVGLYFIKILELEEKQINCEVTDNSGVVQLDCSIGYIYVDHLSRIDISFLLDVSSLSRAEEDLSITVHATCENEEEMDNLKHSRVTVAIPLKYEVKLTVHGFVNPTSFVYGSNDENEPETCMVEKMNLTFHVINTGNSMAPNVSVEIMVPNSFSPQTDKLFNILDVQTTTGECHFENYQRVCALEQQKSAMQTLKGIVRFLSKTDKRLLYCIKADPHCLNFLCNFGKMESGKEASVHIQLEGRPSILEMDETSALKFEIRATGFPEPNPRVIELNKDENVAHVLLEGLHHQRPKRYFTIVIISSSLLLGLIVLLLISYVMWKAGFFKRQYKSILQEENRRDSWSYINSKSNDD
# Sequence (P26010 20-798): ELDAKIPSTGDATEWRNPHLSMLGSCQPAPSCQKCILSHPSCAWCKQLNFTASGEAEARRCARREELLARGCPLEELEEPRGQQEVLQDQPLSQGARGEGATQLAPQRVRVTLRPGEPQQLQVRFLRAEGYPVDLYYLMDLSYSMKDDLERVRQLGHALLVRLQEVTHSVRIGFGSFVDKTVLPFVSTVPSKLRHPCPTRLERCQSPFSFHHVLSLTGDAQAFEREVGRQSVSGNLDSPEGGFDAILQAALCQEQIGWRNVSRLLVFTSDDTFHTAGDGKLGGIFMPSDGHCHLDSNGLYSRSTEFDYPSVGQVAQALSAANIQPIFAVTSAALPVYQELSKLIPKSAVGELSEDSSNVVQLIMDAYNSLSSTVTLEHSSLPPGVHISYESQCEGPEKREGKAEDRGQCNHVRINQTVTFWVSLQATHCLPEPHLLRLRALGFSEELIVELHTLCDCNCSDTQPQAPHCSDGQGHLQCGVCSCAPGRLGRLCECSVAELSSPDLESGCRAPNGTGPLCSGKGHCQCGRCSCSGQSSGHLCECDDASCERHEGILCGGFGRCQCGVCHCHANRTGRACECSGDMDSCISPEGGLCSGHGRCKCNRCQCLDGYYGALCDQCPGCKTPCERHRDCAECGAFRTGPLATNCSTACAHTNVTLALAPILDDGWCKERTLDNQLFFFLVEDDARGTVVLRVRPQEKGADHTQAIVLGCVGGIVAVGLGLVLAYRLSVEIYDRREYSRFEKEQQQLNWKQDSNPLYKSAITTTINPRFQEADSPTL
# assay-comment: α4β7-K562 Cell Adhesion Assay (α4β7 Mediated Adhesion/MAdCAM-1)
# Type: cell-based
# settings: K562 cells expressing human α4β7 adhering to FLAG-hMAdCAM-1, 1 mM Mn2+; read-out: α4β7, Madcam IC50
property-measured: IC50

Examples with their reported IC50 follow.
> print(dat)
                              smiles.string                             system.tested  recorded.result
1  COc1cccc(OC)c1-c1ccc(C[C@H](NC(=O)[C@@H]2CCc3nnc(Cc4ccccc4)n32)C(=O)O)cc1  human α4β7 integrin (Homo sapiens, UniProt P13612+P26010)           320 nM
2  O=C(Nc1ccc(C[C@H](NC(=O)[C@@H]2CCc3nnc(Cc4ccccc4)n32)C(=O)O)cc1)c1cccc2ccccc12  human α4β7 integrin (Homo sapiens, UniProt P13612+P26010)        > 5000 nM

Please look at the following compound next.
Query: Which IC50 value is on record for "CCOc1ccc2ccccc2c1C(=O)Nc1ccc(C[C@H](NC(=O)[C@@H]2CCc3nnc(Cc4ccccc4)n32)C(=O)O)cc1" ?
Response: > 5000 nM

----------
# system-tested: α4β1 (Homo sapiens, UniProt P05556+P13612)
# Sequence (P05556 21-798, one chain of several): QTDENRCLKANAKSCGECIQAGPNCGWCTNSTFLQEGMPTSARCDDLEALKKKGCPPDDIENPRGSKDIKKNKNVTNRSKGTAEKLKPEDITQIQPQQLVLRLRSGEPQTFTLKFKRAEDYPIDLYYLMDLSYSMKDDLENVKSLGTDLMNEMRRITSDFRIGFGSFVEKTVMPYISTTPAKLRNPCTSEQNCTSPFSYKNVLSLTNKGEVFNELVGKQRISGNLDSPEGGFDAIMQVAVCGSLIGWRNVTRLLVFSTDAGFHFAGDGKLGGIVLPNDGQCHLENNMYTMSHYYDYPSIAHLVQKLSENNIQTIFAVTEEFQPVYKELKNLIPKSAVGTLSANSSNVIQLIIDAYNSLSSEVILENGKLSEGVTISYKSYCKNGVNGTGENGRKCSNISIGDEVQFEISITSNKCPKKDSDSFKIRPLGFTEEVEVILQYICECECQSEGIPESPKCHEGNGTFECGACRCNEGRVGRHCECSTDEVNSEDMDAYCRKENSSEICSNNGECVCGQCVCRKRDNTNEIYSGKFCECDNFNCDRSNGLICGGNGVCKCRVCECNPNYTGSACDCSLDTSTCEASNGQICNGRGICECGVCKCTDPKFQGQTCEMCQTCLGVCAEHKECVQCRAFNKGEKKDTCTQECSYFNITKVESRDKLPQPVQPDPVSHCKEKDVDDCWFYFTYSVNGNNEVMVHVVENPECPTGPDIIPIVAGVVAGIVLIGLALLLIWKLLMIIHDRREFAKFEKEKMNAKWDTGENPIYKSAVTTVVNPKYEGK
# assay-comment: Ramos Cell Adhesion Assay (α4β1 Mediated Adhesion/VCAM-1)
# Type: cell-based
# Parameters: Ramos Cell Adhesion Assay (α4β1 Mediated Adhesion/VCAM-1); endogenous in cells; host or cells: Ramos cells
# settings: Ramos cells adhering to recombinant hVCAM-1; read-out: α4β1 IC50
property-measured: IC50

Examples with their reported IC50 follow.
> print(dat)
                              smiles.string  recorded.result
1  COc1cnn(C)c(=O)c1-c1ccc(C[C@H](NC(=O)[C@@H]2CCc3nnc(Cc4ccccc4)n32)C(=O)O)cc1           640 nM
2  O=C(Nc1ccc(C[C@H](NC(=O)[C@@H]2CCc3nnc(Cc4ccccc4)n32)C(=O)O)cc1)c1cccc2ccccc12        > 5000 nM
3  CCOc1ccc2ccccc2c1C(=O)Nc1ccc(C[C@H](NC(=O)[C@@H]2CCc3nnc(Cc4ccccc4)n32)C(=O)O)cc1        > 5000 nM
4  O=C(Nc1ccc(C[C@H](NC(=O)[C@@H]2CCc3n[nH]c(=O)n32)C(=O)O)cc1)c1c(Cl)cncc1Cl           450 nM
5  O=C(Nc1ccc(C[C@H](NC(=O)[C@@H]2CCc3nnc(Cc4ccccc4)n32)C(=O)O)cc1)c1cccc2c1-c1ccccc1C2=O          1560 nM
6  O=C(Nc1ccc(C[C@H](NC(=O)[C@@H]2CCc3nnc(Cc4ccccc4)n32)C(=O)O)cc1)c1c(Cl)cncc1Cl            80 nM

Query: Which IC50 value is on record for "O=C(Nc1ccc(C[C@H](NC(=O)[C@@H]2CCc3nn(Cc4ccccc4)c(=O)n32)C(=O)O)cc1)c1c(Cl)cncc1Cl" ?
Response: > 5000 nM

----------
# system-tested: α4β1 (Homo sapiens, UniProt P05556+P13612)
# assay-comment: Ramos Cell Adhesion Assay (α4β1 Mediated Adhesion/VCAM-1)
# Type: cell-based
# Design: Ramos Cell Adhesion Assay (α4β1 Mediated Adhesion/VCAM-1); endogenous in cells; host or cells: Ramos cells
# settings: Ramos cells adhering to recombinant hVCAM-1; read-out: α4β1 IC50
property-measured: IC50 (µM)
// units = µM; emit number, no label

Examples with their reported IC50 follow.
> print(dat)
                              smiles.string  property.measured  recorded.result
1  CCCc1nnc2n1[C@H](C(=O)N[C@@H](Cc1ccc(NC(=O)c3c(Cl)cccc3Cl)cc1)C(=O)O)CC2               IC50             1.04
2  O=C(Nc1ccc(C[C@H](NC(=O)[C@@H]2CCc3nnc(Cc4ccsc4)n32)C(=O)O)cc1)c1c(Cl)cccc1Cl               IC50             0.38
3  COc1cccc(OC)c1-c1ccc(C[C@H](NC(=O)[C@@H]2CCc3nnc(Cc4ccsc4)n32)C(=O)O)cc1               IC50             0.71

Query: I'm curious: which IC50 was measured for "COc1cccc(OC)c1-c1ccc(C[C@H](NC(=O)[C@@H]2CCc3nnc(Cc4ccccc4)n32)C(=O)O)cc1" tested on α4β1 (Homo sapiens, UniProt P05556+P13612)?
Response: 1.19
